test.name: NOD1 signaling inhibitors, primary screen, cell-based, luminescence, uHTS (AID 1578);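 also: HEK-293T reporter cells stimulated with the NOD1 agonist gamma-tri-DAP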
condition.notes: NOD1-driven NF-kB luciferase reporter cells, at 4 µM
Hit rate of the full screen: of about 290,000 compounds, about 3,000 (1%) were called active. Rule as the data show it: active = inhibition mostly above about 36% (no sharp cut-off); inactive = mostly below about 34%. The entries come from a sample that favours actives as a whole.
Choose one outcome from this list and give only that: active, inactive

# compound, cat
measured = [
    ("Cc1ccc(CC2S/C(=N/c3ccccn3)NC2=O)cc1 (stereo unspecified)", "inactive"),
    ("CC1C(=NO)C(C)C(c2ccc(N(C)C)cc2)NC1c1ccc(N(C)C)cc1 (stereo unspecified)", "inactive"),
]

INPUT: Hi, do you know how CCOC(=O)c1[nH]cnc1C(=O)Nc1cccc(OC)c1 came out in this test?
OUTPUT: inactive

INPUT: Okay, and CCOc1cc(Br)c(Br)c(C=Nc2ccc(NC(C)=O)cc2)c1O ?
OUTPUT: active

INPUT: Now this one: CC12CCC(=O)N1C(C(=O)Nc1nnc(SCc3ccccc3F)s1)CS2 (stereo unspecified)
OUTPUT: inactive

INPUT: Next compound: CC(=O)N1CCc2cc(S(=O)(=O)NCC(=O)NCc3ccc(F)cc3)ccc21
OUTPUT: inactive

====

Listing: inhibition of selected compounds
test.name: NOD1 signaling inhibitors, primary screen, cell-based, luminescence, uHTS (AID 1578);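 also: HEK-293T reporter cells stimulated with the NOD1 agonist gamma-tri-DAP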
condition.notes: NOD1-driven NF-kB luciferase reporter cells, at 4 µM, active compounds read high
The campaign covered roughly 290,000 compounds. About 3,000 (1%) were called active. The entries come from a sample that favours actives as a whole.
# number only, unit % dropped from output

Here is how some compounds turned out for inhibition.
# compound, measured.metric, numeric.result
data = [
    ("C=C(C)Cn1c(NCCC)nc2c1c(=O)n(C)c(=O)n2C", "inhibition", -26.6),
    ("CCCCn1c(SCC(=O)Nc2cc(C(F)(F)F)ccc2Cl)nnc1C(CC)N(C)C (stereo not drawn)", "inhibition", -47.6),
    ("O=C(NCCCn1ccnc1)/C(=C/c1ccccc1)NC(=O)c1ccccc1", "inhibition", 32.8),
    ("CCn1cc(CN2CCC(C(=O)Nc3cccc(-c4cscn4)c3)CC2)cn1", "inhibition", -27.3),
    ("O=C1CC(c2cc(F)ccc2F)c2cc3c(cc2N1)CCC3 (stereo not drawn)", "inhibition", 64.2),
    ("CC1(C)CC(=O)C2=C(C1)Nc1ccccc1N=C2", "inhibition", 59.6),
    ("C/C(=N\\NC(=O)c1ccccn1)c1ccc(C(=O)O)s1", "inhibition", 6.8),
    ("O=C(Nc1cc(S(=O)(=O)N2CCOCC2)ccc1N1CCOCC1)C1CCCO1 (stereo not drawn)", "inhibition", -32.9),
]

INPUT: I'd like to know its inhibition. The compound in question is O=C(c1cc2ccccc2oc1=O)N(c1ccccc1)C1C=CS(=O)(=O)C1 (stereo not drawn)
OUTPUT: 5.4

INPUT: Request: CC1CC(=O)C2=C(C1)Nc1ccccc1N=C2 (stereo not drawn)
OUTPUT: 11.1

INPUT: Same read-out for Cc1nn(C)cc1CN1CCC(n2nccc2NC(=O)CCCc2ccccc2)CC1 ?
OUTPUT: -26.7

INPUT: Further, for COCCNC(=S)N1CCOCC1 ?
OUTPUT: -13.4

INPUT: Similarly, O=C(O)C1CCCN1c1ncccc1[N+](=O)[O-] (stereo not drawn) ?
OUTPUT: -20.8

INPUT: Try this compound too: CCC(=O)c1cccc2c1N=CC1=C(CC(C)(C)CC1=O)N2
OUTPUT: -20.6

INPUT: Same thing, different compound: O=C(O)COc1ccccc1/C=N/NC(=O)c1cc(-c2ccccc2)nc2ccccc12
OUTPUT: -11.3

INPUT: Repeat with Cc1cc2c(cc1S(=O)(=O)Nc1cccc(F)c1)n(C)c(=O)c(=O)n2C
OUTPUT: 13.5

INPUT: Field entry: COc1ccccc1OCc1ccc(C(=O)N2CCOCC2)o1
OUTPUT: -11

INPUT: Same lookup for COc1ccc(CCC(=O)N(c2nnc(-c3cccnc3)s2)C(C)C)cc1 , please.
OUTPUT: -14.2

INPUT: Can you check Fc1ccc(NC(=S)Nc2cccnc2)c(F)c1F next?
OUTPUT: -19.1

INPUT: // next record COC(=O)C1=C(C)Nc2c(c(=O)n(C)c(=O)n2C)C1c1ccc(C)cc1 (stereo not drawn)
OUTPUT: -27.5

INPUT: Quick one: Cc1ccc(-c2nc(CSCC(=O)NC3CCN(Cc4ccccc4)CC3)c(C)o2)cc1
OUTPUT: 16

INPUT: Same read-out for COC(=O)C1=C(C)Nc2c(c(=O)n(C)c(=O)n2C)C1c1cccnc1 (stereo not drawn) ?
OUTPUT: -10.6

INPUT: Then Cc1sc2ncn(CC(=O)NCC(=O)N(C)Cc3ccccc3)c(=O)c2c1C ?
OUTPUT: -12.2

====

test.name: NOD1 signaling inhibitors, primary screen, cell-based, luminescence, uHTS (AID 1578);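 also: HEK-293T reporter cells stimulated with the NOD1 agonist gamma-tri-DAP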
condition.notes: NOD1-driven NF-kB luciferase reporter cells, at 4 µM, active compounds read high
Among all 290,000 compounds or so, about 3,000 (1%) were called active. The sample holds actives, similar compounds and a random draw of the others, so the mix is not that of the screen.
# label = fulfilled if inhibition >= 10% else not fulfilled

# molecule, cat
data = [
    ("COP(=O)(OC)C(Nc1ccc([N+](=O)[O-])cc1)c1ccccc1 (stereo not drawn)", "not fulfilled"),
    ("CNC(=O)Cc1csc2ccc(Cl)cc12", "not fulfilled"),
    ("CCOC(=O)c1c(NC(=O)CSc2nnc(C)c(=O)[nH]2)sc(C)c1-c1ccc(C)cc1", "fulfilled"),
]

INPUT: Form field: inhibition at least 10%? Entry: O=C(OCC(=O)C12CC3CC(CC(C3)C1)C2)c1cnccn1
OUTPUT: not fulfilled

INPUT: // repeat for O=C(O)CSCC(=O)NCc1csc2ccc(Cl)cc12 and report
OUTPUT: not fulfilled

INPUT: How about this molecule: CCCCS(=O)(=O)/C=C/[C@H]1[C@H](S(=O)(=O)CCCC)[C@H]2C=C[C@@H]1C2
OUTPUT: not fulfilled

INPUT: Repeat with Fc1ccc(CSc2nnc3ccccn23)c(Cl)c1
OUTPUT: not fulfilled

INPUT: Again, but for CC(=O)c1cc2c(cc1NC(=O)CCC1CCCC1)OCO2
OUTPUT: fulfilled

====

Catalogue of inhibition readings, one per entry.
test.name: NOD1 signaling inhibitors, primary screen, cell-based, luminescence, uHTS (AID 1578);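 also: HEK-293T reporter cells stimulated with the NOD1 agonist gamma-tri-DAP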
condition.notes: NOD1-driven NF-kB luciferase reporter cells, at 4 µM, active compounds read high
Screen size: about 290,000 compounds; about 3,000 (1%) were called active. The full list was thinned out, with actives kept by preference.
The answer is to be given in %; state only the numeric part.

# smiles.str, inhibition [%]
rows = [
    ("C/C(=N\\NC(N)=O)c1cccc(Cl)c1", 29),
    ("O=C(O)/C=C/c1cccnc1", -4.2),
    ("CN1CCN(C(=O)/C(=C/c2ccccc2F)NC(=O)c2ccccc2)CC1", -17.7),
    ("COc1ccc(/C=N/Nc2nc(-c3cccc(S(=O)(=O)N4CCCC4)c3)cs2)cc1OC", 52.7),
    ("Cc1ccsc1/C=N\\NC(=O)Cn1nnc2ccccc21", -9.3),
]

Then there is this compound:
INPUT: Which inhibition value belongs to CN(C)S(=O)(=O)c1ccc(-c2csc(N/N=C/c3ccc(O)cc3)n2)cc1 ?
OUTPUT: 12.3

====

test.name: NOD1 signaling inhibitors, primary screen, cell-based, luminescence, uHTS (AID 1578);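 also: HEK-293T reporter cells stimulated with the NOD1 agonist gamma-tri-DAP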
condition.notes: NOD1-driven NF-kB luciferase reporter cells, at 4 µM, active compounds read high
Out of some 290,000 compounds screened, about 3,000 (1%) were called active. This excerpt belongs to a sample that is enriched for actives.
measured.metric: inhibition

Solved entries (count: 2):
# molecule, inhibition
records = [
    ("NS(=O)(=O)c1ccc(CNC(=S)NCc2ccc(F)cc2)cc1", "14.6% (inactive)"),
    ("COc1ccccc1Oc1nc(-c2ccccc2)cc(C)c1S(C)(=O)=O", "-16.2% (inactive)"),
]

Note: attention shifts to another entry.
INPUT: What measured inhibition goes with Cn1c(=S)[nH]c2[nH]c(=O)cnc2c1=O ?
OUTPUT: -2.8% (inactive)

====

test.name: NOD1 signaling inhibitors, primary screen, cell-based, luminescence, uHTS (AID 1578);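 also: HEK-293T reporter cells stimulated with the NOD1 agonist gamma-tri-DAP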
condition.notes: NOD1-driven NF-kB luciferase reporter cells, at 4 µM, active compounds read high
Out of some 290,000 compounds screened, about 3,000 (1%) were called active. What follows is part of a selection rich in actives, with near analogues and random picks from the rest.
As shown below, each of these molecules has a reported inhibition value.
# value in %; strip the unit string

Recorded results for 6 molecules are shown here.
# molecule, inhibition / %
data = [
    ("COc1ccc2nc(NC(C)=O)sc2c1", -12.9),
    ("CC(C)(C)c1ccc(-c2cn(-c3ccc(Br)cc3)c3[n+]2CCCS3)cc1", 57.2),
    ("C#CCNC(=O)C1=C[C@H](c2cn(C(C)=O)c3ccccc23)C[C@H](OCc2ccc(CO)cc2)O1", 46.1),
    ("COc1ccc(S(=O)(=O)N(C)CC(=O)N2CCCC2)cc1OC", -5.3),
    ("Cc1cc(/C=N/n2c(COc3ccccc3C)nc3ccccc3c2=O)c(O)c([N+](=O)[O-])c1", 15),
    ("C[C@@H]1CC[C@@]2(O[C@H](CCO)C[C@@H](O)[C@@H]2O)O1", -47.3),
]

INPUT: Record request: inhibition value, item Cc1ccccc1N(C(=O)c1ccccn1)C(C(=O)NCc1ccccc1)c1ccncc1 (configuration not stated)
OUTPUT: -21.2
